Biological target: HLA-A*02:01 (Homo sapiens, UniProt P04439, D140Y/D185E/D98H/E176V/E277Q/G131W/G231S/I119V/I121R/I166T/I218V/L300P/L318F/N151K/N90K/P208A/P217A/Q86G/Q94H/R138H/R169H/T345S)
Test: MHC binding assay (UV-ligand exchange, beta2m ELISA)
Conditions: binding to HLA-A*02:01, UV-ligand exchange
Description: Candidate peptides for T cell based therapies according to the present invention were further tested for their MHC binding capacity (affinity). The individual peptide-MHC complexes were produced by UV-ligand exchange, where a UV-sensitive peptide is cleaved upon UV-irradiation, and exchanged with the peptide of interest as analyzed. Only peptide candidates that can effectively bind and stabilize the peptide-receptive MHC molecules prevent dissociation of the MHC complexes. […]
quantity_kind: Peptide exchange (MHC class I binding score, peptide exchange yield)

substance: 105 (VLTPVILQV; listed as Homo sapiens) [compound 105]
reported_result: “+++” (≥50 = +++)
--
substance: 157 (KVLEFLAKV; listed as Homo sapiens) [compound 157]
reported_result: “+++” (≥50 = +++)
--
substance: 232 (KVMEGTVAA; listed as Homo sapiens) [compound 232]
reported_result: “++” (≥20% = ++)
--
substance: 273 (AILLPQPPK; listed as Homo sapiens) [compound 273]
reported_result: “++” (≥20% = ++)

For the next question, use this substance.
Looking up 218 (ALDQFLEGI; listed as Homo sapiens) [compound 218] , I see its Peptide exchange (MHC class I binding score, peptide exchange yield) listed as “+++” (≥50 = +++)

These data points were gathered from patent US10702592B2.
